Below, each of the molecules is paired with its reported pIC50 value.
biological target: Human Factor D (Homo sapiens (Human), UniProt P00746); test: Human Factor D assay; format: biochemical; settings: Human Factor D 80 nM, substrate Z-L-Lys-SBzl, A405; read-out: IC50 (Stars)
Sequence (P00746 26-253): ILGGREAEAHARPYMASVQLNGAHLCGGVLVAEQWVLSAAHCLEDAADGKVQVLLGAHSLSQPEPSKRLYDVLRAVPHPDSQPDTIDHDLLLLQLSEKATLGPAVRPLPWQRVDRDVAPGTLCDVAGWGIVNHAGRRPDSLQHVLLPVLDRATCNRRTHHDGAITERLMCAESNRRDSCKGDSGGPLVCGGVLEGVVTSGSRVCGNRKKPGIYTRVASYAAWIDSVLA
pIC50: −log10 of the molar value.

Solved cases below.
MOLECULE	TESTED TARGET	pIC50
CC(=O)c1nn2c3c(cc(NCC4CCCCC4)cc13)CCCCCCC(=O)NC[C@@]13C[C@@H](C(=O)Nc4nc(C(F)(F)F)ccc4C)N(C(=O)C2)[C@@H]1C3 [Compound 39]	Human Factor D (Homo sapiens (Human), UniProt P00746)	> 6.00
CC(=O)c1nn(CC(=O)N(C)[C@H]2CCCCCCCCCc3ccc(Br)nc3NC2=O)c2ccc(-c3cnc(C)nc3)cc12 [Compound 12]	Human Factor D (Homo sapiens (Human), UniProt P00746)	5.00 to 6.00
CC(=O)c1nn2c3c(cc(-c4cnc(C)nc4)cc13)NC(=O)CCCCCOCC13CC(C(=O)Nc4nc(C(F)(F)F)ccc4C)N(C(=O)C2)C1C3 (stereo not shown) [Compound 60]	Human Factor D (Homo sapiens (Human), UniProt P00746)	> 6.00

Quick one: pIC50 for CC(=O)c1nn2c3c(cc(-c4cnc(C)nc4)cc13)CCCCCCC(=O)NC[C@@]13C[C@@H](C(=O)Nc4nc(OC(F)(F)F)ccc4C)N(C(=O)C2)[C@@H]1C3 [Compound 1] ?
> 6.00
